biological target: EGFR L858R/C797S (Homo sapiens, UniProt P00533, C797S/L858R); assay: Biochemical EGFR kinase inhibition assay (Lance Ultra TR-FRET), double mutant L858R/C797S; settings: IC50 L858R/C797S (nM), 100 μM ATP
Sequence (P00533 25-1210 C797S/L858R): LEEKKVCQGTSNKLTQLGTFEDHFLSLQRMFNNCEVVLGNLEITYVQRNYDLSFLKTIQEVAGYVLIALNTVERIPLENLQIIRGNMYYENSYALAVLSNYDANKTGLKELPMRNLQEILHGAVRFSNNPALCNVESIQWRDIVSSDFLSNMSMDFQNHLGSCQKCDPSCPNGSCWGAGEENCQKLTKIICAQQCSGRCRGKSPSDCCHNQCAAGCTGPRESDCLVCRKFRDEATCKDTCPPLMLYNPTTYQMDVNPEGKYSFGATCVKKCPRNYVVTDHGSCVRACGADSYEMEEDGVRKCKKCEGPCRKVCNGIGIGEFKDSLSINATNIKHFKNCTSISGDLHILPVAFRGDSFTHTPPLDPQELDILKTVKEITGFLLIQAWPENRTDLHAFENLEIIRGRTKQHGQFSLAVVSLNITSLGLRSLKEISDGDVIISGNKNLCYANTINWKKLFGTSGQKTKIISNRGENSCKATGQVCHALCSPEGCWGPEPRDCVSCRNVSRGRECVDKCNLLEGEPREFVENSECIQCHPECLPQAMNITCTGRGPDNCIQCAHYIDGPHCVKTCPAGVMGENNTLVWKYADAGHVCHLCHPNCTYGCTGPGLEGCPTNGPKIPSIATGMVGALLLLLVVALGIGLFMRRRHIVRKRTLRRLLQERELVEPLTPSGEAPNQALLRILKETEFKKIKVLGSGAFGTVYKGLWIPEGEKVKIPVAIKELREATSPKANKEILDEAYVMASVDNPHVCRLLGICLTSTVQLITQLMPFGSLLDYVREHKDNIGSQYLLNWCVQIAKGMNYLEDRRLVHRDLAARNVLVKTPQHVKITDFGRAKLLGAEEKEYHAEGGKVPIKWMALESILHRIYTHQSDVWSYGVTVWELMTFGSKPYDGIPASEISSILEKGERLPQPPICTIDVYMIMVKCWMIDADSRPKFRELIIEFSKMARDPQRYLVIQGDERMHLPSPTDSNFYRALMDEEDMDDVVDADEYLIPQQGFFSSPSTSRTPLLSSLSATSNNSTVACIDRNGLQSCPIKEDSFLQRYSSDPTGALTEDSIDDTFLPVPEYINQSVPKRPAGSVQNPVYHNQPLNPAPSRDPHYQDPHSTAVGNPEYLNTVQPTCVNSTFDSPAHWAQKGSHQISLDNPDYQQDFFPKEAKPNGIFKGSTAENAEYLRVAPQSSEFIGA
VALUE_KIND: IC50 (nM)

Cn1cc(C#Cc2cnc(Nc3ccnc(-c4cnn(S(=O)(=O)C5CC5)c4)n3)cc2N2CCC(CCO)CC2)c(C(F)(F)F)n1 [Example 91] | 166
O=S(=O)(C1CC1)n1cc(-c2nccc(Nc3cc(NC[C@H]4CC[C@H](CO)CC4)c(C#CC4CC5CCC4O5)cn3)n2)cn1 (stereo partly drawn) [Example 425] | 1820
CC1(CO)CCN(c2cc(Nc3ccnc(-c4cnn(S(=O)(=O)C5CC5)c4)n3)ncc2C#CCCO)CC1 [Example 274] | 10.8

a: CC1(CO)CCN(c2cc(Nc3ccnc(-c4cnn(S(=O)(=O)C5CC5)c4)n3)ncc2C#CC2CCN(S(C)(=O)=O)C2)CC1 (stereo not drawn) [Example 401]
b: O=S(=O)(C1CC1)n1cc(-c2nccc(Nc3cc(N[C@H]4CC[C@@H](NCCF)CC4)c(C#Cc4cnn(CC(F)(F)F)c4)cn3)n2)cn1 [Example 345]
Lower value for measured IC50? Options: a , b # respond with the chosen item's label
a

---

target: EGFR L858R/T790M/C797S (Homo sapiens, UniProt P00533, C797S/L858R/T790M); assay: Biochemical EGFR kinase inhibition assay (Lance Ultra TR-FRET), triple mutant L858R/T790M/C797S; conditions: Km ATP; read-out: IC50 L858R/T790M/C797S (nM) Km ATP
Sequence (P00533 25-1210 T790M/C797S/L858R): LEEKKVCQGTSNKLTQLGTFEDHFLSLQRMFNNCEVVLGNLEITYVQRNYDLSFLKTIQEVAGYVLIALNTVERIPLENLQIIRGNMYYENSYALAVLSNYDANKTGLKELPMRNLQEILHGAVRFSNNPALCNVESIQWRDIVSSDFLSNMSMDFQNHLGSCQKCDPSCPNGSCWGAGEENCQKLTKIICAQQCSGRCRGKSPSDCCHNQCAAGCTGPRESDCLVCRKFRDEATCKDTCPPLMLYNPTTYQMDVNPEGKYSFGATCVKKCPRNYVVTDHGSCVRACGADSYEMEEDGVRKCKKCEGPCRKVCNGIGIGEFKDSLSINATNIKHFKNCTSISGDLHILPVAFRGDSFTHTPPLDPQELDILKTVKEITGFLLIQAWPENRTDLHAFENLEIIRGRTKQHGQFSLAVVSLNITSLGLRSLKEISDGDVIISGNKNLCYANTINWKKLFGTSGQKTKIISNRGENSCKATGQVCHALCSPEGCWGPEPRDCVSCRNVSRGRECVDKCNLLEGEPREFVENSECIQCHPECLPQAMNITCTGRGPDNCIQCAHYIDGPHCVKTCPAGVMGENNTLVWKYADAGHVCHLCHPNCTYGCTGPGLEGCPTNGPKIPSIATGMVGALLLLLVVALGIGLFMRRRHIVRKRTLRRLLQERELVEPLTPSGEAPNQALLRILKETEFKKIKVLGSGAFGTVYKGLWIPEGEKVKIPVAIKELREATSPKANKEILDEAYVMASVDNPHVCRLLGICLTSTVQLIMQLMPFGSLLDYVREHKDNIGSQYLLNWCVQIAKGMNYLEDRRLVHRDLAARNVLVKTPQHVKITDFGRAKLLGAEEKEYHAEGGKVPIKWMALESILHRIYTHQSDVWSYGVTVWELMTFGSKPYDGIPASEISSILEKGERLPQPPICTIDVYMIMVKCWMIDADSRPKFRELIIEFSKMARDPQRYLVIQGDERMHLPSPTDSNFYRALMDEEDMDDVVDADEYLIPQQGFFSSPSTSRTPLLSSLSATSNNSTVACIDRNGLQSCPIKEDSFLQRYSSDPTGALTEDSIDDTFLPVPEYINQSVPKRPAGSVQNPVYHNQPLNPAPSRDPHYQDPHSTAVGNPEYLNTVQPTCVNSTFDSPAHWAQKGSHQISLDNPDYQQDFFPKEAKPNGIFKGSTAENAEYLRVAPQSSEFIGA
VALUE_KIND: IC50 (nM)

The cases that follow already have their IC50 on record.
O=S(=O)(C1CC1)n1cc(-c2nccc(Nc3cc(N[C@H]4CC[C@@H](O)CC4)c(C#Cc4cnn(C5CCOCC5)c4)cn3)n2)cn1 | 1.4
O=S(=O)(C1CC1)n1cc(-c2nccc(Nc3cc(N4CCC(NCCO)CC4)c(C#Cc4cnn(C5CCOCC5)c4)cn3)n2)cn1 | 0.4
CNCC1(C)CCN(c2cc(Nc3ccnc(-c4cnn(S(=O)(=O)C5CC5)c4)n3)ncc2C#Cc2cnn(C)c2)CC1 | 0.04
O=S(=O)(C1CC1)n1cc(-c2nccc(Nc3cc(N4CCC(F)(CO)CC4)c(C#Cc4cnn(C5CCOCC5)c4)cn3)n2)cn1 | 0.6
Cn1cc(C#Cc2cnc(Nc3ccnc(-c4cnn(S(=O)(=O)C5CC5)c4)n3)cc2N2CCC(NCC(F)F)CC2)cn1 | 0.3

1: CN(C)C(C)(C)CNC1CCN(c2cc(Nc3ccnc(-c4cnn(S(=O)(=O)C5CC5)c4)n3)ncc2C#Cc2cnn(C)c2)CC1
2: Cn1cc(C#Cc2cnc(Nc3ccnc(-c4cnn(S(=O)(=O)C5CC5)c4)n3)cc2-c2cnn(C)c2)cn1
3: CC1(O)CC2(CCN(c3cc(Nc4ccnc(-c5cnn(S(=O)(=O)C6CC6)c5)n4)ncc3C#Cc3cnn(C(F)(F)F)c3)CC2)C1
4: CN(C)Cc1ccc(CNc2cc(Nc3ccnc(-c4cnn(S(=O)(=O)C5CC5)c4)n3)ncc2C#Cc2cnn(C)c2)cc1
Sort these molecules on IC50 so the largest reading comes first. Give the order by naming the labels one after another as requested.
2, 4, 3, 1

1: CC1(CO)CCN(c2cc(Nc3ccnc(-c4cnn(S(=O)(=O)C5CC5)c4)n3)ncc2C#Cc2cnn(C3CC3)c2)CC1
2: CN(C)C[C@H]1CC[C@H](COc2cc(Nc3ccnc(-c4cnn(S(=O)(=O)C5CC5)c4)n3)ncc2C#Cc2cnn(C)c2)CC1
Which numeric IC50 is bigger, that of 1 or that of 2 ? # respond with the chosen item's label
1

Cited source: patent US11981658B2
